tested-system: human recombinant cathepsin L (Homo sapiens, UniProt P07711)
Sequence (P07711 114-333): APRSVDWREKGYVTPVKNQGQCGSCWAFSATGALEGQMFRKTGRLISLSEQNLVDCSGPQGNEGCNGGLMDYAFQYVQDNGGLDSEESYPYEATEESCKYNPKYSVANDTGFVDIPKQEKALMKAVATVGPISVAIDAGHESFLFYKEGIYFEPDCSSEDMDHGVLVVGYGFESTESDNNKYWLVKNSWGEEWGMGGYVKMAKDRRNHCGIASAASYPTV
measurement-protocol: Determination of Ki values and mode of inhibition
measurement-setup: mean ± SD (n = 2)
pKi: −log10 of the molar value.
measured-endpoint: pKi

See these solved cases before continuing.
query: Please report the recorded pKi for O=C(c1ccccc1OCc1ccccc1)C1OC1c1csc(-c2ccccc2)n1 (stereo not drawn) [Compound 40] .
result: 3.34

query: Moving on to CC(=O)c1cccc(NC(=O)c2cnc3sccn3c2=O)c1 [Compound 4]
result: 4.07

query: Now the molecule COC(=O)Cc1c[nH]c2ccc(OCC3CO3)cc12 (stereo not drawn) [Compound 21]
result: 3.63

query: Now consider Cc1cc(OCc2ccccc2)c(C(=O)C2OC2c2csc(-c3ccccc3)n2)cc1C (stereo not drawn) [Compound 49] and answer again.
result: 3.26

query: Follow-up item: Cc1nc(C2OC2C(=O)c2ccccc2OCc2ccccc2)cs1 (stereo not drawn) [Compound 39]
result: 3.14

[A] Cc1ccc(Cl)c2sc(NC(=O)c3ccc(S(=O)(=O)N4CCc5ccccc5C4)cc3)nc12 [Compound 2]
[B] CCCNC(=O)[C@H]1O[C@@H]1C(=O)N[C@H](C(=O)N1CCC[C@@H]1C(=O)OC)[C@@H](C)CC [Compound 25]
[C] O=C(NCC1CCN(C(=O)Oc2ccccc2)CC1)c1ccccc1 [Compound 48]
[D] O=C(c1cc(Br)ccc1OCc1ccccc1)C1OC1c1cc2ccccc2o1 (stereo not drawn) [Compound 26]
query: // smallest pKi at index 0, largest at the end // respond by listing labels in the order requested
result: C, D, A, B
(C: 2.92, D: 3.43, A: 3.79, B: 5.00)

----------
tested-system: Cathepsin V (Homo sapiens, UniProt O60911)
Construct: made in house; host or cells: Pichia pastoris
Sequence (O60911 114-334): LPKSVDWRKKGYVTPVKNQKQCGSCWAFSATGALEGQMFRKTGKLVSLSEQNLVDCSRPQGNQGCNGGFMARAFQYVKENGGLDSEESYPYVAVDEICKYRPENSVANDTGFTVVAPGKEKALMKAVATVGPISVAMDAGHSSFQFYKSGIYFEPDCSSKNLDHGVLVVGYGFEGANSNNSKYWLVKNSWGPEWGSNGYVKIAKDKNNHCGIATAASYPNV
measurement-protocol: Determination of relative inhibition, substrate Z-Phe-Arg-AMC
Assay type: biochemical
measurement-setup: inhibitor 50 μM; substrate 2 μM; mean ± SD (n = 2); read-out: Cathepsin V Ri (%) relative inhibition
measured-endpoint: inhibition at 50 µM (%)

query: Need inhibition at 50 µM of O=C(NCc1nnc2c(C(F)(F)F)cccn12)c1cc2cc(Cl)ccc2[nH]1 , thanks.
result: 16.9

query: # iterate: Cc1noc(-c2cccn3c(CNC(=O)c4cc(-c5cccs5)n[nH]4)nnc23)n1
result: 6.7

query: Same lookup for COc1ccc(CNC(=O)NCC2CCN(C(=O)Oc3ccccc3)CC2)cc1 , please.
result: 9.5

[1] COc1ccc(C(=O)C2OC2c2cc3ccccc3o2)c(OCc2ccccc2)c1 (centres unmarked)
[2] COC(=O)Cc1c[nH]c2ccc(OCC(O)CNC(C)C)cc12 (centres unmarked)
query: # returns the entry with the larger inhibition at 50 µM; inputs 1 and 2 Choose, then provide that item's label.
result: 2
(2: 0.3%, 1: -7.2%)

----------
tested-system: human recombinant cathepsin L (Homo sapiens)
Construct: made in house; host or cells: Escherichia coli
measurement-protocol: Determination of relative inhibition, substrate Z-Phe-Arg-AMC
Type: biochemical
measurement-setup: inhibitor 50 μM; substrate 2 μM; mean ± SD (n = 2); read-out: Cathepsin L Ri (%) relative inhibition
measured-endpoint: inhibition at 50 µM (%)

In the examples that follow, each entry is paired with its recorded inhibition at 50 µM.
query: What measured inhibition at 50 µM goes with CN(C)c1ccc(CC(=O)NC2CCCN(Cc3cccnc3)C2)cc1 (stereo not drawn) ?
result: -1.2

query: Record: O=C(NCc1cccc2ccccc12)Nc1ccc2c(c1)CCCN2C(=O)c1cccs1
result: 21.5

query: How about this compound: COC(=O)N1CCC(CNC(=O)NC(c2ccccc2)c2ccccc2)CC1
result: 3.3

query: // query: O=C(CN1Cc2ccccc2C1)NC1CCCN(Cc2cccc(O)c2)C1 (stereo not drawn)
result: -2.4

query: Field entry: Cc1cc(C)c2sc(NC(=O)c3ccc(S(=O)(=O)N4CCc5ccccc5C4)cc3)nc2c1
result: 147

[P] O=C(NC(Cc1ccccc1)C(=O)O)C1CCC(CNC(=O)C2Cc3ccccc3CN2)CC1 (stereo not drawn)
[Q] O=C(Nc1nc2c(s1)CN(Cc1ccccc1)CC2)c1cccc2ccccc12
query: Determine, for P and Q , which has the greater value of inhibition at 50 µM. Which one? Tell me its label.
result: Q
(Q: 30.3%, P: -4%)

[I] Cc1ccc(Cl)c2sc(NC(=O)c3ccc(S(=O)(=O)N4CCc5ccccc5C4)cc3)nc12
[II] Cc1cc(CNC(=O)Cc2cccc3ccccc23)ncn1
[III] COc1ccc(CNC(=O)N2CCC(C(=O)N3CCCCC3)CC2)cc1
[IV] O=C(Nc1cc(Cl)ccc1Cl)c1cnc2n(c1=O)CCS2
query: I would appreciate it if you could sort these 4 compounds by inhibition at 50 µM, starting from the smallest number. Give me the labels in the order the question wants.
result: IV, II, III, I

[1] CC1Oc2ccccc2OC1C(=O)NCC#CCN1CCc2ccccc2C1 (stereo not drawn)
[2] CCOC(=O)N1CCC(NC(=O)NCc2ccc(OC)cc2)CC1
[3] O=C(NCCN1CCN(c2ccc(Cl)cc2)CC1)[C@H]1CC(=O)N(c2ccccc2)C1
[4] COc1ccc(NC(C)=O)cc1NC(=O)c1n[nH]c2ccccc12
query: Put the items in order so that reported inhibition at 50 µM rises from first to last. Hello, could you send the labels back in the order asked? Thank you.
result: 3, 2, 1, 4

[P] COC(=O)Cc1c[nH]c2ccc(OCC3CO3)cc12 (stereo not drawn)
[Q] Cc1nccc(O[C@H]2CCN(S(=O)(=O)/C=C/c3ccccc3)C2)n1
query: Which is greater in inhibition at 50 µM, the first item P or the second item Q ? Choose, then provide that item's label.
result: P

----------
tested-system: Cathepsin V (Homo sapiens, UniProt O60911)
Construct: made in house; host or cells: Pichia pastoris
measurement-protocol: Determination of relative inhibition, substrate Z-Phe-Arg-AMC
Format: biochemical
measurement-setup: inhibitor 50 μM; substrate 2 μM; mean ± SD (n = 2); read-out: Cathepsin V Ri (%) relative inhibition
measured-endpoint: inhibition at 50 µM (%)

query: For Cathepsin V (Homo sapiens, UniProt O60911), provide inhibition at 50 µM of Cc1cc(CNC(=O)Cc2cccc3ccccc23)ncn1 please.
result: -2.4

query: Repeat with O=C(Nc1cc(Cl)ccc1Cl)c1cnc2n(c1=O)CCS2
result: -5.4

query: Then this compound: Brc1ccccc1CNc1ncncc1-c1nc(-c2ccsc2)no1
result: -3.1

query: What would you report for Cc1nc(C2OC2C(=O)c2ccccc2OCc2ccccc2)cs1 (centres unmarked) ?
result: 17.1

query: // repeat for Cc1ccc(Cl)c2sc(NC(=O)c3ccc(S(=O)(=O)N4CCc5ccccc5C4)cc3)nc12 and report
result: 16.4

query: Now try Cc1nccc(O[C@H]2CCN(S(=O)(=O)/C=C/c3ccccc3)C2)n1 .
result: -6.5

query: Now the compound O=C(Nc1ccc(F)cc1)OC1CCCC(NC(=O)c2c(F)cccc2F)C1 (centres unmarked)
result: 7.5

query: What about CN(C)c1ccc(CC(=O)NC2CCCN(Cc3cccnc3)C2)cc1 (centres unmarked) ?
result: -2

query: Then COc1ccc(CNC(=O)N2CCC(C(N)=O)CC2)cc1 ?
result: 15.2

query: Next record, please: O=C(NCC1CCN(C(=O)Oc2ccccc2)CC1)c1ccccc1
result: 20.4

[P] O=C(NCc1cccc2ccccc12)Nc1ccc2c(c1)CCCN2C(=O)c1cccs1
[Q] Cc1c(C(=O)N2CC(N3CCc4ccccc4C3)C2)cnn1-c1ccccc1
[R] O=C(CN1Cc2ccccc2C1)NC1CCCN(Cc2cccc(O)c2)C1 (centres unmarked)
[S] COc1ccc(CNC(=O)NCC2CCN(C(=O)N(C)C)CC2)cc1
[T] Cc1[nH]c(C(=O)NCCCc2nc3ccccc3[nH]2)c(C)c1C(=O)OC(C)C
query: Ranking field: inhibition at 50 µM; order: falling. Form entry: labels listed in requested order.
result: P, S, R, T, Q
(P: 17.8%, S: 12.1%, R: -0.5%, T: -3.4%, Q: -27.6%)

----------
tested-system: human recombinant cathepsin L (Homo sapiens, UniProt P07711)
Construct: made in house; host or cells: Escherichia coli
measurement-protocol: Determination of relative inhibition, substrate Z-Phe-Arg-AMC
Assay type: biochemical
measurement-setup: inhibitor 50 μM; substrate 2 μM; mean ± SD (n = 2); read-out: Cathepsin L Ri (%) relative inhibition
measured-endpoint: inhibition at 50 µM (%)

query: Any idea what inhibition at 50 µM was measured for Cc1noc(-c2cccn3c(CNC(=O)c4cc(-c5cccs5)n[nH]4)nnc23)n1 ?
result: 13

query: And then COc1ccc(CNC(=O)NCC2CCN(C(=O)Oc3ccccc3)CC2)cc1 , what is it?
result: 4.4

query: For Cc1c(C(=O)N2CC(N3CCc4ccccc4C3)C2)cnn1-c1ccccc1 then?
result: -5.4

query: Next record, please: COc1ccc(CNC(=O)N2CCC(C(N)=O)CC2)cc1
result: -0.6

query: What do you have for O=C(NCC(O)CN1CCOCC1)c1cc2cc(Br)ccc2[nH]1 (stereo not shown) ?
result: 12

[P] O=C(NCc1nnc2c(C(F)(F)F)cccn12)c1cc(-c2cccs2)n[nH]1
[Q] O=C(N[C@H]1CCCN(Cc2ccccc2)C1)c1ccc(CN2CCCC2)o1
query: Could you please tell me which of these two has the higher inhibition at 50 µM: P or Q ? Answer with the label corresponding to your selection.
result: P
(P: 17.8%, Q: -4.6%)

[I] COC(=O)N1CCC(CNC(=O)NCc2cccc3ccccc23)CC1
[II] COCCN1CCC(CNC(=O)NCc2ccc(OC)cc2)CC1
[III] COc1ccc(C(=O)C2OC2c2cc3ccccc3o2)c(OCc2ccccc2)c1 (stereo not shown)
[IV] COc1ccc(CNC(=O)NCC2CCN(C(=O)N(C)C)CC2)cc1
[V] O=C(Nc1nc2c(s1)CN(Cc1ccccc1)CC2)c1ccc(-c2ccccc2)cc1
query: List these items ordered by inhibition at 50 µM, big to small. Output spec: a listing of the labels in the requested order.
result: V, III, IV, I, II

[P] O=C(Nc1ccc(F)cc1)OC1CCCC(NC(=O)c2c(F)cccc2F)C1 (stereo not shown)
[Q] O=C(Nc1nc2c(s1)CN(Cc1ccccc1)CC2)c1ccccc1
[R] COC(=O)Cc1c[nH]c2ccc(OCC(O)CNC(C)C)cc12 (stereo not shown)
query: Ascending sort, inhibition at 50 µM. Output spec: a listing of the labels in the requested order.
result: R, Q, P
(R: -0.7%, Q: 4.7%, P: 13.4%)
